B1: HDV Ribozyme (parent)
chain: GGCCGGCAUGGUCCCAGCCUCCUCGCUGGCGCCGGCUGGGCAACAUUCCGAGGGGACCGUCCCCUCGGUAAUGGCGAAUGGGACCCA

Variants of: B1
Experiment: self-cleavage, relative activity (ratio to wild type); higher = more cleavage; co-transcriptional
Quick rule for you: self-cleavage at 0.3 or higher means YES, lower means NO.

- sequence input: "GGCCGGCAUGGUCCCAGCCUCCUCACUGGCGCCGGCUGGGCAACAUUCCGAGGGGACCGUCCCCUCGGUAAUGGCGAAUGCGACCCA [G25A G81C]"
  class assignment: "NO"
- sequence input: "GGCCGGCAUGGUCCCAGCCUCCUCGCUGGCGACGGCUGGGCAACAUUCCGAGGGGACCGUCCCCUCGGUAAUGGGGAAUGGGACCCA [C32A C75G]"
  class assignment: "NO"
- sequence input: "GGCCGGCAUGGUCCCAGCCUCCUCGCUUGCGCCGGCUGGGCAACAUUCCGAGGGGACCGUCACCUCGGUAAUGGCGAAUGGGACCCA [G28U C62A]"
  class assignment: "NO"
- sequence input: "GGCCGGCAUGGUCCCAGCCUCCUCGCUGGCGCGGGCUGGGCAACAUUCCGAGGGGACCGUCCCCUCGGCAAUGGCGAAUGGGACCCA [C33G U69C]"
  class assignment: "NO"
- sequence input: "GGCCGGCAUGGUCCCAGCCUCCUCGCUGGCGCUGGCUGGGCAACAUUCCGAGGGGACCGUCCCCUCUGUAAUGGCGAAUGGGACCCA [C33U G67U]"
  class assignment: "YES"
- sequence input: "GGCCGGCAUGGUCCCAGCCUCCUCGGUGGCGCCGGCUGGGCAACAUUCCGAGGGGACCCUCCCCUCGGUAAUGGCGAAUGGGACCCA [C26G G59C]"
  class assignment: "YES"
- sequence input: "GGCCGGCAUGGUCCCAGCCUCCUCGCUGGCGCCGGCUGGGCGACUUUCCGAGGGGACCGUCCCCUCGGUAAUGGCGAAUGGGACCCA [A42G A45U]"
  class assignment: "YES"
- sequence input: "GGCCGGCAUGCUCCCAGCCUCCUCGCUGGCGCCGGCUGGGCAACAUUCCGAGGGGCCCGUCCCCUCGGUAAUGGCGAAUGGGACCCA [G11C A56C]"
  class assignment: "YES"
- sequence input: "GGCCGGCAUGGUCCCAGCCUCCUCGCUGGCCCCGGCUGGGCAACAUUCCGAGGGGACCGUCCCCUCUGUAAUGGCGAAUGGGACCCA [G31C G67U]"
  class assignment: "YES"
- sequence input: "GGCCGGCAUGGUCCCAGCCUCCUCUCUGGCGCCGGCUGGGCAACAUUCCGAGGGGACCGUCCCCUCGGUGAUGGCGAAUGGGACCCA [G25U A70G]"
  class assignment: "NO"
- sequence input: "GGCCGGCAUGGUCCCAGCCUCCUCGCUGGCGCCGGCUGGGCAACAAUCCGAGGGGACCGUCCCCUGGGUAAUGGCGAAUGGGACCCA [U46A C66G]"
  class assignment: "YES"
- sequence input: "GGCCGGCAUGGUCCCAGCCUCCUCGCUGGCGCCGGCUGGGCAACAUACCGAGGGGACCGUCCCGUCGGUAAUGGCGAAUGGGACCCA [U47A C64G]"
  class assignment: "YES"
- sequence input: "GGCCGGCAUGGUCCCAGCCUCCUCGCUGGCGCCGGCUGGGCAACAUUCCGAGGGGACCGUCCCCUCGGUAAUGGCGAACGGGACCCC [U79C A87C]"
  class assignment: "YES"
- sequence input: "GGUCGGCAUGGUCCCAGCCUCCUCGCCGGCGCCGGCUGGGCAACAUUCCGAGGGGACCGUCCCCUCGGUAAUGGCGAAUGGGACCCA [C3U U27C]"
  class assignment: "NO"
- sequence input: "GGCCGGCAUGGUCCCAGCCUCCUCGCUGGCGCCGGCGGGGCAACAGUCCGAGGGGACCGUCCCCUCGGUAAUGGCGAAUGGGACCCA [U37G U46G]"
  class assignment: "YES"
- sequence input: "GGCCGGCAUGGUCCGAGCCUCCUCGCUGGCGCCGGCUGGGCAACAGUCCGAGGGGACCGUCCCCUCGGUAAUGGCGAAUGGGACCCA [C15G U46G]"
  class assignment: "YES"
- sequence input: "GGCCGGCAUGGUCCCAGCCUCUUCGCUGGCGCCGGCUGGGCAACAUUCCGAGGGGACCGUCCCCUCGGUAAUGGCGCAUGGGACCCA [C22U A77C]"
  class assignment: "NO"
- sequence input: "GUCCGGCAUGGUCCCAGCCUCCUCGCUGGCGCCGGCUGGGCAACAUUCCGAGGGGACCGUCCCCUCGGUUAUGGCGAAUGGGACCCA [G2U A70U]"
  class assignment: "NO"
- sequence input: "GGCCGGCAUGGACCCAGCCUCCUCGCUGGAGCCGGCUGGGCAACAUUCCGAGGGGACCGUCCCCUCGGUAAUGGCGAAUGGGACCCA [U12A C30A]"
  class assignment: "NO"
- sequence input: "GGCCGGCAUGGUCCCAGCCUCCUCGCUGGCGCCGGCUGGGCAACAUCCCGAGGGGACCGUCCCCUCGGUAAUGGCGAAUGGGACCAA [U47C C86A]"
  class assignment: "YES"
- sequence input: "GGCCGGCAUGGUCCCAGCCUCCUCGCUGGCGCCGGCUGGGCAACAUUCCGAGGGGACCUUCCCCUCGGUAAUGGCGAAUGGGAGCCA [G59U C84G]"
  class assignment: "YES"
- sequence input: "GGCCGGCAUGGUCCCAGCCUCCUCGAUGGCGCCGGCUGGGCAACAUUCCGAGGGGACCGUCCUCUCGGUAAUGGCGAAUGGGACCCA [C26A C63U]"
  class assignment: "YES"
- sequence input: "GGCCGGCAUGGUCCCAGCCUCCUCGCUGGCGCCGGCUGGGCAAUAUUCCGAGGGGACCGUCCCCUCGGUCAUGGCGAAUGGGACCCA [C44U A70C]"
  class assignment: "YES"
- sequence input: "GGCCGGCAUGGUCCCAGCCUCCUCGCUGGCGACGGCUGGGCAACAUUCCGAGGGGGCCGUCCCCUCGGUAAUGGCGAAUGGGACCCA [C32A A56G]"
  class assignment: "NO"
- sequence input: "GGCCGGCAUGGUCCCAGCCUCCUCGCUGGCGCCGGCUGGGCAACAUUCAGUGGGGACCGUCCCCUCGGUAAUGGCGAAUGGGACCCA [C49A A51U]"
  class assignment: "YES"
- sequence input: "GGCCGGUAUGGUCCCAGCCUCCUCGCUGGCGCCGGCUGGGCAACAUUCCGAGGGGACCGUCCCCUCGGUAAUGGCGAAUAGGACCCA [C7U G80A]"
  class assignment: "NO"
- sequence input: "GGCCGGCAUGGUCCCAGCCUCCUCGCUUGCGCCGGCUGGGCAACAUUCCGAGGGGACCGUCCCCUCGGUAAUGGCAAAUGGGACCCA [G28U G76A]"
  class assignment: "NO"
- sequence input: "GGCCGGCAGGGUCCCAGCCUCCUCGCUGGCGCCGGCUGGGCAACAUUCUGAGGGGACCGUCCCCUCGGUAAUGGCGAAUGGGACCCA [U9G C49U]"
  class assignment: "YES"
- sequence input: "GGCCGGCAUGGUCCCAACCUCCUCGCUGGCGCCGGUUGGGCAACAUUCCGAGGGGACCGUCCCCUCGGUAAUGGCGAAUGGGACCCA [G17A C36U]"
  class assignment: "NO"
- sequence input: "GGCCGGCAUGGUCCCCGCCUCCUCGCUGGCGCCGGCUGGGCAACAUUCCGAGGGGACCGUCCCCUCGGUUAUGGCGAAUGGGACCCA [A16C A70U]"
  class assignment: "YES"
- sequence input: "GGCCGGCAUGGUCCCAGCCUCCUCGCUGGCGCCGGCUGGGCAACAUUCCGAGGGGACCGUCCACGCGGUAAUGGCGAAUGGGACCCA [C63A U65G]"
  class assignment: "YES"
- sequence input: "GGCCGGCAUGGUCCCAGCCUCCUCGCUUGCGCCGGCUGGGCAACAUUCCGAGGGGACCGUCCCCUCGGUAAUGGCGAAAGGGACCCA [G28U U79A]"
  class assignment: "NO"
- sequence input: "GGCCGGCAUGGUCCCAGCGUCCUCCCUGGCGCCGGCUGGGCAACAUUCCGAGGGGACCGUCCCCUCGGUAAUGGCGAAUGGGACCCA [C19G G25C]"
  class assignment: "NO"
- sequence input: "GGGCGGCAUGGUCCCAGCUUCCUCGCUGGCGCCGGCUGGGCAACAUUCCGAGGGGACCGUCCCCUCGGUAAUGGCGAAUGGGACCCA [C3G C19U]"
  class assignment: "NO"
- sequence input: "GGCCGGCAUGGUCCCAGCCUCCUCGCUGGCGCCGGCUGGGCGACAUUCCGAGGGGACCGUCCCCUCGAUAAUGGCGAAUGGGACCCA [A42G G68A]"
  class assignment: "YES"
- sequence input: "GGCCGGCAUGGUUCCAGCCUCCUCGCUGGCGCCGGCUGGGCAACAUUCCGAGGGGACCGUCCCCUCGGUAAUGGGGAAUGGGACCCA [C13U C75G]"
  class assignment: "NO"
- sequence input: "GGCCUGCAUGGUCCCAGCCUCCUCACUGGCGCCGGCUGGGCAACAUUCCGAGGGGACCGUCCCCUCGGUAAUGGCGAAUGGGACCCA [G5U G25A]"
  class assignment: "NO"
- sequence input: "GGCCGGCAUGGUCCCAGCCUCCUCGCUGGCGCCGGCUGGGCAAGAUUCCGAGGGGACCGUCCCCUAGGUAAUGGCGAAUGGGACCCA [C44G C66A]"
  class assignment: "YES"
- sequence input: "GGCCGGCAUGGUCCCAGCCUCCUCGCUGGCGCCGGUUGGGCAACAUUCCGAGGGGACCGUCCCCUCGGUCAUGGCGAAUGGGACCCA [C36U A70C]"
  class assignment: "YES"
- sequence input: "GGCCGGCAUGGUCCCAGCCUCCUCGCUGGCGCCGGCUGGACAACAUUCCGAGGGGACCGUCCCCUCGGUAAUCGCGAAUGGGACCCA [G40A G73C]"
  class assignment: "YES"
- sequence input: "GGCCGGCAUGGUCCCAGCCUCCUCGCUGGCGCCGACUGGGCAACAUUCCGAGGGGACGGUCCCCUCGGUAAUGGCGAAUGGGACCCA [G35A C58G]"
  class assignment: "YES"
- sequence input: "GGCCGGCAUAGUCCCAGCCUCCUCGCUGGCGCCGGCUGGGCAACAUUCCGAGGGGACCGUCCCCUCGGUAAUGGCGAAUGCGACCCA [G10A G81C]"
  class assignment: "NO"
